# Measured target: purified leucine aminopeptidase (LAP) (Sus scrofa, UniProt P15145)
# Construct: purchased Sigma, St. Louis, Mo; L5006
# Sequence (P15145 whole entry): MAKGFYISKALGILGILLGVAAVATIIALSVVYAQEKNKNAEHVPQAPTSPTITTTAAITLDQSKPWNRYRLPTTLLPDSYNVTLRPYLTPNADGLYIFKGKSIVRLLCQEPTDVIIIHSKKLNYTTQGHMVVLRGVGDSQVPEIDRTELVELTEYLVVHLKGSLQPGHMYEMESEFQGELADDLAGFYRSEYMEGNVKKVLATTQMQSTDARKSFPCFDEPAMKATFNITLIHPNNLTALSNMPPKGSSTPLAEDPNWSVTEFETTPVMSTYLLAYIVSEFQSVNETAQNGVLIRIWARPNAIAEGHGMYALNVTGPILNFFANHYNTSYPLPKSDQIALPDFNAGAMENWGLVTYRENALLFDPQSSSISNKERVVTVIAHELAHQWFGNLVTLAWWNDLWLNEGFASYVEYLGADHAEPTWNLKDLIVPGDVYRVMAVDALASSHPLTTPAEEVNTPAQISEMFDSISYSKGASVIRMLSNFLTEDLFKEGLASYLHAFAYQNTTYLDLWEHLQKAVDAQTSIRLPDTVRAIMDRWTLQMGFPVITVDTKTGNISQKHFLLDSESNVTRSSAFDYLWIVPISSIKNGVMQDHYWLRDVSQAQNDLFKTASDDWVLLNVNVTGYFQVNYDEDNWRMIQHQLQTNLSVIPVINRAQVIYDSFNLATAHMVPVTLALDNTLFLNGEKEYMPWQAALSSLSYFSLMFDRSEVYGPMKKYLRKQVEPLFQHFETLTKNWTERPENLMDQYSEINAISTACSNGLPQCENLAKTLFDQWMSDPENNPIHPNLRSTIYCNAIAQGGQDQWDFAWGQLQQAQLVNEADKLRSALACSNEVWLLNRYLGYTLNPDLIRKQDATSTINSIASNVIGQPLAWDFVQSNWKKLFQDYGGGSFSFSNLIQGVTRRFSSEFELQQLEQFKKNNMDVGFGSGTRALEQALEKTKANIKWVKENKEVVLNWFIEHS
# Measurement notes: Purified Leucine Aminopeptidase Activity (Purified Enzyme Method)
# Format: biochemical
pIC50: −log10 of the molar value.
Quantity name: pIC50

Prompt: Form field: pIC50 recorded for "Cc1ccc(S(=O)(=O)N[C@@H](CCCCN)C(=O)CCl)cc1" with purified leucine aminopeptidase (LAP) (Sus scrofa, UniProt P15145) (enter value)
Response: < 3.30

* * *

# Measured target: purified leucine aminopeptidase (LAP) (Sus scrofa)
# Construct: purchased Sigma, St. Louis, Mo; L5006
# Measurement notes: Purified Leucine Aminopeptidase Activity (Purified Enzyme Method)
# Format: biochemical
# Details: purified leucine aminopeptidase, L-Leucine-p-nitroaniline, pH 7.2, 25° C.; read-out: IC50 Purified Enzyme Methods LAP
pIC50: −log10 of the molar value.
Quantity name: pIC50

Some solved cases for reference:
Molecule	pIC50
N=C(N)c1ccc(N)cc1 [p-Amino-benzamidine]	< 3.30
CC1(C)[C@@H](O[C@H]2O[C@H](C(=O)O)[C@@H](O)[C@H](O)[C@H]2O[C@@H]2O[C@H](C(=O)O)[C@@H](O)[C@H](O)[C@H]2O)CC[C@]2(C)[C@H]3C(=O)C=C4[C@@H]5C[C@@](C)(C(=O)O)CC[C@]5(C)CC[C@@]4(C)[C@]3(C)CC[C@@H]12 [Glycyrrhizic Acid]	< 3.30

Pending molecule:
Prompt: Test system purified leucine aminopeptidase (LAP) (Sus scrofa); read-out pIC50; what value for N=C(N)c1ccc(OCCCCCCOc2ccc(C(=N)N)cc2)cc1 [Hexamidine diisethionate] ?
Response: 3.59

* * *

# Measured target: trypsin activity in feces
# Measurement notes: Fecal Trypsin Activity (Specific Fecal Enzyme Method)
# Details: pooled infant fecal suspension, pH 8.2, 25° C.; read-out: IC50 Specific Fecal Enzyme Methods Trypsin
Square brackets hold non-standard residues; d marks the D form. Peptide text beside a SMILES is read from it. * marks the point of attachment. Sta = CC(C)C[C@H](N)[C@@H](O)CC(=O)O; Isovaleryl = CC(C)CC(=O)*
Reported IC50 is given for each of the following compounds.

Compound	Measured target	IC50
CC(C)CC(=O)N[C@H](C(=O)N[C@H](C(=O)N[C@@H](CC(C)C)[C@@H](O)CC(=O)N[C@@H](C)C(=O)N[C@@H](CC(C)C)[C@@H](O)CC(=O)O)C(C)C)C(C)C [Pepstatin A] (Isovaleryl-VV[Sta]A[Sta]-OH)	trypsin activity in feces	> 500 µM
CC(C)C[C@H](NC(=O)[C@@H](NC(=O)N[C@@H](Cc1ccccc1)C(=O)O)[C@@H]1CCN=C(N)N1)C(=O)N[C@H](C=O)Cc1ccccc1	trypsin activity in feces	> 500 µM

Now consider a different compound.
Prompt: State the recorded IC50 for this entry: "CC1(C)[C@@H](O[C@H]2O[C@H](C(=O)O)[C@@H](O)[C@H](O)[C@H]2O[C@@H]2O[C@H](C(=O)O)[C@@H](O)[C@H](O)[C@H]2O)CC[C@]2(C)[C@H]3C(=O)C=C4[C@@H]5C[C@@](C)(C(=O)O)CC[C@]5(C)CC[C@@]4(C)[C@]3(C)CC[C@@H]12"
Response: > 300 µM

These entries and their values trace back to patent US6703536B2.
